Numbers sourced from the Immune Epitope Database (IEDB).

# test.target: HLA-B*15:01
# assay.summary: IEDB peptide-MHC binding, purified MHC/competitive/fluorescence; bounds were set here for any values at or beyond the usual limits of such assays
# test.context: source organism: Vaccinia virus
pIC50: −log10 of the molar value.
test.readout: pIC50

[in] Which pIC50 reading was recorded for the sequence GTSGTEKEF ?
[out] ≤ 3.40

[in] Which pIC50 reading was recorded for the sequence AMEKSSKYY ?
[out] 4.96

[in] Which pIC50 reading was recorded for the sequence KEFLRYLLF ?
[out] ≤ 3.56

[in] Which pIC50 reading was recorded for the sequence KSNIEETKF ?
[out] ≤ 3.32

[in] Which pIC50 reading was recorded for the sequence KCIKKGVEY ?
[out] ≤ 4.04

====

# test.target: HLA-A*11:01
# assay.summary: IEDB peptide-MHC binding, purified MHC/direct/fluorescence; filed as Kd, often an IC50 or EC50 that approximates it; bounds were set here for any values at or beyond the usual limits of such assays
# test.context: source organism: Homo sapiens
test.readout: Kd

[in] Which Kd reading was recorded for the sequence LVMAPRTVL ?
[out] 10.3 µM

[in] Which Kd reading was recorded for the sequence DSDGSFFLY ?
[out] ≥ 20.6 µM

====

# test.target: HLA-B*15:17
# assay.summary: IEDB peptide-MHC binding, purified MHC/competitive/fluorescence; filed as Kd, often an IC50 or EC50 that approximates it; bounds were set here for any values at or beyond the usual limits of such assays
# test.context: source organism: Listeria monocytogenes serotype 4b str. CLIP 80459
test.readout: Kd

[in] Which Kd reading was recorded for the sequence EIEIEKNKK ?
[out] ≥ 20 µM

====

# test.target: HLA-A*32:01
# assay.summary: IEDB peptide-MHC binding, purified MHC/competitive/radioactivity; filed as Kd, often an IC50 or EC50 that approximates it; bounds were set here for any values at or beyond the usual limits of such assays
# test.context: source organism: Dengue virus 2 Peru/IQT2913/1996
test.readout: Kd (µM)
Value expressed in µM; do not type the unit.

[in] Notebook entry, HLA-A*32:01 assay: Kd of TELRYSWKTW = ?
[out] 2.42

====

# test.target: HLA-B*39:01
# assay.summary: IEDB peptide-MHC binding, purified MHC/competitive/fluorescence; filed as Kd, often an IC50 or EC50 that approximates it; bounds were set here for any values at or beyond the usual limits of such assays
# test.context: source organism: Bacillus anthracis str. A2012
test.readout: Kd

[in] Which Kd reading was recorded for the sequence KKNHWFILK ?
[out] ≥ 20 µM

====

# test.target: HLA-B*15:17
# assay.summary: IEDB peptide-MHC binding, purified MHC/competitive/fluorescence; filed as Kd, often an IC50 or EC50 that approximates it; bounds were set here for any values at or beyond the usual limits of such assays
# test.context: source organism: Escherichia coli 536
pKd: −log10 of the molar value.
test.readout: pKd

[in] Which pKd reading was recorded for the sequence QTDNDIWFW ?
[out] ≤ 4.70

====

# test.target: HLA-A*02:01
# assay.summary: IEDB peptide-MHC binding, purified MHC/direct/fluorescence; filed as Kd, often an IC50 or EC50 that approximates it; bounds were set here for any values at or beyond the usual limits of such assays
# test.context: source organism: Vibrio cholerae
test.readout: Kd

[in] Which Kd reading was recorded for the sequence RPRIRLSAP ?
[out] ≥ 20 µM

====

# test.target: HLA-C*03:03
# assay.summary: IEDB peptide-MHC binding, purified MHC/direct/fluorescence; filed as Kd, often an IC50 or EC50 that approximates it; bounds were set here for any values at or beyond the usual limits of such assays
# test.context: source organism: Vibrio vulnificus YJ016
test.readout: pKd
Note on units: pKd is unitless, being -log10 of a concentration expressed in mol/L.

[in] Which pKd reading was recorded for the sequence KMFNRASYF ?
[out] 5.57

====

# test.target: HLA-A*02:11
# assay.summary: IEDB peptide-MHC binding, purified MHC/competitive/fluorescence; filed as Kd, often an IC50 or EC50 that approximates it; bounds were set here for any values at or beyond the usual limits of such assays
# test.context: source organism: Burkholderia pseudomallei 91
pKd: −log10 of the molar value.
test.readout: pKd

[in] Which pKd reading was recorded for the sequence RAYAAMHLW ?
[out] ≤ 4.70

====

Could you please report measured pKd for the items listed next?
# test.target: HLA-A*26:01
# assay.summary: IEDB peptide-MHC binding, purified MHC/competitive/radioactivity; filed as Kd, often an IC50 or EC50 that approximates it; bounds were set here for any values at or beyond the usual limits of such assays
# test.context: source organism: Dengue virus 4 Philippines/H241/1956
Note on units: pKd is unitless, being -log10 of a concentration expressed in mol/L.

[in] Notebook entry, HLA-A*26:01 assay: pKd of EKTKTDFGFY = ?
[out] 5.03

[in] Notebook entry, HLA-A*26:01 assay: pKd of HTIENTSAN = ?
[out] 5.32

====

# test.target: HLA-A*24:02
# assay.summary: IEDB peptide-MHC binding, purified MHC/competitive/radioactivity; filed as Kd, often an IC50 or EC50 that approximates it; bounds were set here for any values at or beyond the usual limits of such assays
# test.context: source organism: Mammarenavirus caliense
test.readout: pKd
Note on units: pKd is unitless, being -log10 of a concentration expressed in mol/L.

[in] Notebook entry, HLA-A*24:02 assay: pKd of PYENLLYKI = ?
[out] 6.60

====

# test.target: HLA-A*02:01
# assay.summary: IEDB peptide-MHC binding, purified MHC/direct/fluorescence; filed as Kd, often an IC50 or EC50 that approximates it; bounds were set here for any values at or beyond the usual limits of such assays
# test.context: source organism: Mammarenavirus lassaense
test.readout: Kd

[in] Notebook entry, HLA-A*02:01 assay: Kd of IEEVMNIVL = ?
[out] ≥ 20 µM

====

# test.target: HLA-B*15:02
# assay.summary: IEDB peptide-MHC binding, purified MHC/competitive/fluorescence; filed as Kd, often an IC50 or EC50 that approximates it; bounds were set here for any values at or beyond the usual limits of such assays
# test.context: source organism: Pseudomonas fluorescens
test.readout: Kd
# output: numeric value plus its unit

[in] Which Kd reading was recorded for the sequence FVSVYFSDY ?
[out] 40 nM

====

# test.target: HLA-B*44:02
# assay.summary: IEDB peptide-MHC binding, purified MHC/competitive/radioactivity; filed as Kd, often an IC50 or EC50 that approximates it; bounds were set here for any values at or beyond the usual limits of such assays
# test.context: source organism: Mammarenavirus mopeiaense
pKd: −log10 of the molar value.
test.readout: pKd

[in] Which pKd reading was recorded for the sequence PELLNNQFGT ?
[out] ≤ 4.15

====

# test.target: HLA-A*11:01
# assay.summary: IEDB peptide-MHC binding, purified MHC/competitive/fluorescence; bounds were set here for any values at or beyond the usual limits of such assays
# test.context: source organism: Vaccinia virus WR
test.readout: IC50 (nM)
Value expressed in nM; do not type the unit.

[in] Which IC50 reading was recorded for the sequence AVIRANNNR ?
[out] 2160

====

# test.target: HLA-B*18:01
# assay.summary: IEDB peptide-MHC binding, purified MHC/competitive/fluorescence; filed as Kd, often an IC50 or EC50 that approximates it; bounds were set here for any values at or beyond the usual limits of such assays
# test.context: source organism: Escherichia coli 536
test.readout: Kd

[in] Which Kd reading was recorded for the sequence QTDNDIWFW ?
[out] ≥ 20 µM

====

# test.target: HLA-A*03:01
# assay.summary: IEDB peptide-MHC binding, purified MHC/competitive/radioactivity; filed as Kd, often an IC50 or EC50 that approximates it; bounds were set here for any values at or beyond the usual limits of such assays
# test.context: source organism: Hepatitis C virus (isolate 1)
test.readout: pKd
Note on units: pKd is unitless, being -log10 of a concentration expressed in mol/L.

[in] Which pKd reading was recorded for the sequence ATDALMTGY ?
[out] 5.48

====

# test.target: HLA-B*27:05
# assay.summary: IEDB peptide-MHC binding, purified MHC/direct/fluorescence; filed as Kd, often an IC50 or EC50 that approximates it; bounds were set here for any values at or beyond the usual limits of such assays
# test.context: source organism: Cryptosporidium parvum
test.readout: Kd

[in] Which Kd reading was recorded for the sequence RLLRMNNEN ?
[out] ≥ 20 µM

====

# test.target: HLA-A*68:02
# assay.summary: IEDB peptide-MHC binding, purified MHC/competitive/fluorescence; filed as Kd, often an IC50 or EC50 that approximates it; bounds were set here for any values at or beyond the usual limits of such assays
# test.context: source organism: Orthomarburgvirus marburgense
test.readout: Kd
# output: numeric value plus its unit

[in] Which Kd reading was recorded for the sequence YHLGGIEGL ?
[out] 1.44 µM

====

# test.target: HLA-B*44:03
# assay.summary: IEDB peptide-MHC binding, purified MHC/competitive/radioactivity; filed as Kd, often an IC50 or EC50 that approximates it; bounds were set here for any values at or beyond the usual limits of such assays
# test.context: source organism: Dengue virus 3 Martinique/1243/1999
Could you please report measured pKd for the items listed next?
Note on units: pKd is unitless, being -log10 of a concentration expressed in mol/L.

[in] Which pKd reading was recorded for the sequence METLLLLGLM ?
[out] 5.58

[in] Which pKd reading was recorded for the sequence GEKKKLRPRW ?
[out] 5.59
